Below, each entry is listed alongside its reported inhibition at 0.2 µM.
Molecular target: Cannabinoid CB2 Receptor (Homo sapiens, UniProt P34972)
Construct: expressed in transfected cells; semi-purified membrane pellet
Sequence (P34972 whole entry): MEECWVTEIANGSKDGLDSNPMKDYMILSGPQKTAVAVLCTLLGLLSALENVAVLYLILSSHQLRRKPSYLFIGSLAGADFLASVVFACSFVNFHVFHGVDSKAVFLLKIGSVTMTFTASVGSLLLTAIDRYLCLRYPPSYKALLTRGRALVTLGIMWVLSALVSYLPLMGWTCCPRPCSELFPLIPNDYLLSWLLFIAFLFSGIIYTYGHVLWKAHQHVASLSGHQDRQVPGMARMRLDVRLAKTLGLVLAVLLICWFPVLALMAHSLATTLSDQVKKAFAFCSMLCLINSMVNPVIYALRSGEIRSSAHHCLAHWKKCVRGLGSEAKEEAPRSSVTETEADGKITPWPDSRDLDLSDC
Test: Binding assay, cannabinoid CB2 receptor ([3H]-CP-55,940 displacement, SK-N-MC cell membranes)
Details: test concentration of 0.2 μM; human CB2 in SK-N-MC membranes; read-out: Cannabinoid CB2 Receptor Binding, percent inhibition
Description: Binding Assay for CB1 or CB2 Agonists or Inverse Agonists The human CB1 and CB2 receptors were stably expressed in SK-N-MC cells transfected with pcDNA3 CB-1 (human) or pcDNA3 CB-2 (human). […] On the day of the assay, the pellet was thawed on ice and diluted in assay buffer (50 mM Tris-HCl, 5 mM MgCl2, 2.5 mM EDTA, 0.5 mg/mL fatty acid free bovine serum albumin, pH 7.5). […] Non-specific binding was measured in wells containing 10 uM WIN 55,212. […]
Write the numeric value and append its unit.

Observe how each entry below is paired with its result.
Structure As Smiles	Measured Result
O=C(NN1CCCCCC1)c1nn(-c2ccc(Cl)cc2Cl)c2c1COC/C2=C\c1ccsc1	16%
C[C@H](NC(=O)c1nn(-c2ccc(Cl)cc2Cl)c2c1COC/C2=C\c1ccc(Cl)o1)c1ccccc1	15%
C[C@@H](NC(=O)c1nn(-c2ccc(Cl)cc2Cl)c2c1COC/C2=C\c1ccc(Cl)o1)C1CCCCC1	17%
O=C(N[C@H](CO)c1ccccc1)c1nn(-c2ccc(Cl)cc2Cl)c2c1COC/C2=C\c1ccsc1	17%
O=C(c1nn(-c2ccc(Cl)cc2Cl)c2c1COC/C2=C\c1ccc(F)cc1)N1CCCC1	14%

Supply inhibition at 0.2 µM value. Item: `C[C@@H](NC(=O)c1nn(-c2ccc(Cl)cc2)c2c1COC/C2=C\c1ccc(F)cc1)c1ccccc1`
5%

Assign inhibition at 0.2 µM to the following record: `O=C(NN1CCCCCC1)c1nn(-c2ccc(Cl)cc2Cl)c2c1COC/C2=C\c1cccs1`
16%

State its inhibition at 0.2 µM for this molecule: `O=C(NN1CCCC1)c1nn(-c2ccc(Cl)cc2Cl)c2c1COC/C2=C\c1ccc(Cl)s1`
15%
